- Tested system: SIK2 (Homo sapiens, UniProt Q9H0K1)
- Construct: purchased ThermoFisher Scientific PV4792
- Sequence (Q9H0K1 whole entry): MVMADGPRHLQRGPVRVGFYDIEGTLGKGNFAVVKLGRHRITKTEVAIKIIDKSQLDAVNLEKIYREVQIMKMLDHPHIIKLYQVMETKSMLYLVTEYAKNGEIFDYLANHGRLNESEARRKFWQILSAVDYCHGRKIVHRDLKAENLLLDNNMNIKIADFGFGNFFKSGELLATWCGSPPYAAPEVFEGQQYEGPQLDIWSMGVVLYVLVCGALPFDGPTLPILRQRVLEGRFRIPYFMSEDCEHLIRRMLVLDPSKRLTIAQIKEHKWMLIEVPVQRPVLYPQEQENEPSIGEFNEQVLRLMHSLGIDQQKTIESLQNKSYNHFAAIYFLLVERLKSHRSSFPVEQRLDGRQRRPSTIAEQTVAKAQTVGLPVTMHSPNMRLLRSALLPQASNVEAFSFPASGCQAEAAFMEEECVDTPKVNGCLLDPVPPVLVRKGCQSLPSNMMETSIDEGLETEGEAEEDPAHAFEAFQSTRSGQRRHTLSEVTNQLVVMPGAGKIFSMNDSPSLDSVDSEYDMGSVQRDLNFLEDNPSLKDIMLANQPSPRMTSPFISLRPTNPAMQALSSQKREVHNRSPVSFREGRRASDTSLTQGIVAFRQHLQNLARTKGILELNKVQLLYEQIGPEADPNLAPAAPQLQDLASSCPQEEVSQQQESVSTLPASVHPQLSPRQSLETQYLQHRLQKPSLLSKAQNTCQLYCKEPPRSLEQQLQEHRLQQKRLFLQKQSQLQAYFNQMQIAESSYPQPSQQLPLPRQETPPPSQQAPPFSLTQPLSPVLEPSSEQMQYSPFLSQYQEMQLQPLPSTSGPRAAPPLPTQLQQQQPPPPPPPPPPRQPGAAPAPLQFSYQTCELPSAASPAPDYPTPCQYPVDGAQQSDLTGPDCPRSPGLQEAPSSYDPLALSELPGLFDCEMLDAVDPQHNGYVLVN
- Assay explanation: ADP-Glo kinase assay, SIK2
- Format: biochemical
Assay endpoint: IC50

# example entries with known answers
COc1cc(-c2cnc3cc(C(C)(C)C#N)ccn23)cc(OC(F)F)c1C(=O)N1CC(CO)C1 [Cpd 97] : > 500 nM
COc1cc(-c2cnc3cc(C4(Cl)COC4)ccn23)cc(OC(F)F)c1C(=O)NC1CC1 [Cpd 217] : 100 to 500 nM
COc1cc(-c2cnc3cc(C(C)(C)C#N)ccn23)cc(OC(F)F)c1C(=O)NCC(F)F [Cpd 70] : > 500 nM
COc1cc(-c2cnc3cc(C(C)(C)C#N)ccn23)cc(OC(F)F)c1C(=O)NCc1ccn(C)n1 [Cpd 52] : > 500 nM
COc1cc(-c2cnc3cc(C(C)(C)C#N)ccn23)cc(OC(F)F)c1C(=O)N(C)C1CC1 [Cpd 84] : > 500 nM

Take each entry in turn and give its IC50.
1. COc1cc(-c2cnc3cc(C(C)(C)C#N)ccn23)cc(OC(F)F)c1C(=O)NC(C)C1CC1 (stereo not shown) [Cpd 101]
2. COc1cc(-c2cnc3cc(C(C)N4CC5(COC5)C4)ccn23)cc(OC(F)F)c1C(=O)NC1CC1 (stereo not shown) [Cpd 152]
3. COc1cc(-c2cnn3cc(C4(C#N)CCOCC4)ccc23)cc(OC(F)F)c1C(=O)N[C@@H]1C[C@@H]1F [Cpd 243]

a:
["> 500 nM", "> 500 nM", "> 500 nM"]

Hey, quick one: what's IC50 for each of these?
1. COc1cc(-c2cnc3cc(C(F)(F)C(=O)O)ccn23)cc(OC(F)F)c1C(=O)NC1CC1 [Cpd 132]
2. COc1cc(-c2cnc3cc(C4CCN4)ccn23)cc(OC(F)F)c1C(=O)NC1CC1 (stereo not shown) [Cpd 203]
3. COc1cc(-c2cnn3cc(C4COCCO4)ccc23)cc(OC(F)F)c1C(=O)NC1CC1 (stereo not shown) [Cpd 232]
4. COc1cc(-c2cnc3cc(C(C)(O)CN(C)CCO)ccn23)cc(OC(F)F)c1C(=O)NC1CC1 (stereo not shown) [Cpd 209]
5. COc1cc(-c2cnc3cc(C(C)(C)C#N)ccn23)cc(OC)c1C(=O)NCC#N [Cpd 32]

a:
100 to 500 nM
100 to 500 nM
100 to 500 nM
> 500 nM
> 500 nM

Please give IC50, item by item, for the list that follows.
1. COc1cc(-c2cnc3cc(C4COCCN4)ccn23)cc(OC(F)F)c1C(=O)NC1CC1 (stereo not shown) [Cpd 187]
2. CCOC(C)(C)c1ccn2c(-c3cc(OC)c(C(=O)NC4CC4)c(OC(F)F)c3)cnc2c1 [Cpd 128]
3. COc1cc(-c2cnc3cc(C4(N5CCOCC5)COC4)ccn23)cc(OC(F)F)c1C(=O)NC1CC1 [Cpd 222]

a:
1. > 500 nM
2. > 500 nM
3. > 500 nM

* * *

- System: LPS-induced TNFα in monocytes
- Assay explanation: Monocytes assay: LPS-triggered TNFα (ELISA)
- Assay type: cell-based, human
- Reported conditions: Homo sapiens, Monocyte, LPS-triggered TNFα inhibition
pEC50: −log10 of the molar value.
Assay endpoint: pEC50

Solved entries:
COc1cc(-c2cnc3cc(C(C)(C)F)ccn23)cc(OC(F)F)c1C(=O)NC1CC1 [Cpd 133] : 6.00 to 7.00
COc1cc(-c2cnn3cc(C4(N)CCC4)ccc23)cc(OC(F)F)c1C(=O)N[C@@H]1C[C@@H]1F [Cpd 261] : 6.00 to 7.00
COc1cc(-c2cnn3cc(C4(C#N)CC4)ccc23)cc(OC(F)F)c1C(=O)N[C@@H]1C[C@@H]1F [Cpd 235] : 7.00 to 10.00
COc1cc(-c2cnc3cc(C4CCCN(C(=O)OC(C)(C)C)C4)ccn23)cc(OC(F)F)c1C(=O)NC1CC1 (stereo not shown) [Cpd 64] : 6.00 to 7.00
COc1cc(-c2cnc3cc(C4(C#N)COC4)ccn23)cc(OC(F)F)c1C(=O)N[C@@H]1C[C@@H]1F [Cpd 130] : 6.00 to 7.00

Required: pEC50, one value per compound below.
1. COc1cc(-c2cnc3cc(C4(C#N)CCOCC4)ccn23)cc(OC)c1C(=O)NCC(F)(F)F [Cpd 107]
2. COc1cc(-c2cnc3cc(C4(O)COC4)ccn23)cc(OC(F)F)c1C(=O)N[C@@H]1C[C@@H]1F [Cpd 223]

a:
1. 6.00 to 7.00
2. 6.00 to 7.00

Hi team, please reply with pEC50 for each item in this list.
1. [2H]C([2H])([2H])C(C#N)(c1ccn2c(-c3cc(OC)c(C(=O)NC4CC4)c(OC(F)F)c3)cnc2c1)C([2H])([2H])[2H] [Cpd 230]
2. COc1cc(-c2cnc3cc(C(C)(C)CO)ccn23)cc(OC(F)F)c1C(=O)NC1CC1 [Cpd 150]

a:
6.00 to 7.00
6.00 to 7.00

* * *

- Tested system: SIK2 (Homo sapiens, UniProt Q9H0K1)
- Construct: purchased ThermoFisher Scientific PV4792
- Assay explanation: ADP-Glo kinase assay, SIK2
- Format: biochemical
Provide the recorded IC50 for the entries that follow.

Observe how each entry below is paired with its result.
CCC(O)C(C)(C)c1ccn2c(-c3cc(OC)c(C(=O)NC4CC4)c(OC(F)F)c3)cnc2c1 (stereo not shown) : > 500 nM
COc1cc(-c2cnc3cc(C(C)(C)C#N)ccn23)cc(OC(F)F)c1C(=O)N1CC(O)(C(F)(F)F)C1 : 100 to 500 nM
COc1cc(-c2cnc3cc(C4CCCN4C(C)C)ccn23)cc(OC(F)F)c1C(=O)NC1CC1 (stereo not shown) : 10 to 100 nM
COc1cc(-c2cnc3cc(C(C)(O)Cn4cccn4)ccn23)cc(OC(F)F)c1C(=O)NC1CC1 (stereo not shown) : > 500 nM
COc1cc(-c2cnc3cc(C(C)(C)N)ccn23)cc(OC(F)F)c1C(=O)NC1CC1 : > 500 nM
COc1cc(-c2cnc3cc(C4(C(=O)NCCO)CC4)ccn23)cc(OC(F)F)c1C(=O)NC1CC1 : > 500 nM
COc1cc(-c2cnc3cc(C4(C(=O)N5CCOCC5)CC4)ccn23)cc(OC(F)F)c1C(=O)NC1CC1 : > 500 nM
COc1cc(-c2cnc3cc(C4CN(C(=O)OC(C)(C)C)C4)c(F)cn23)cc(OC(F)F)c1C(=O)NC1CC1 : 100 to 500 nM
CCN(CC)C(=O)C1(c2ccn3c(-c4cc(OC)c(C(=O)NC5CC5)c(OC(F)F)c4)cnc3c2)CC1 : > 500 nM
COc1cc(-c2cnc3cc(C4(C#N)CCOCC4)ccn23)cc(OC(F)F)c1C(=O)NC1CC1 : > 500 nM

Items follow; give IC50 for each.
1. COc1cc(-c2cnc3cc(C(C)N4CC(F)(F)C4)ccn23)cc(OC(F)F)c1C(=O)NC1CC1 (stereo not shown)
2. CCN(CC)CC(C)(C)c1ccc2c(-c3cc(OC)c(C(=O)N[C@@H]4C[C@@H]4F)c(OC(F)F)c3)cnn2c1
3. COc1cc(-c2cnn3cc(C(C)(C)N)ccc23)cc(OC(F)F)c1C(=O)N[C@@H]1C[C@@H]1F
4. COc1cc(-c2cnc3cc(C(C)(C)C(C)O)ccn23)cc(OC)c1C(=O)NCC(F)(F)F (stereo not shown)
5. COc1cc(-c2cnc3cc(C(C)(C)c4noc(C)n4)ccn23)cc(OC(F)F)c1C(=O)NC1CC1
6. COc1cc(-c2cnc3cc(C(C)(C)C#N)ccn23)cc(OC)c1C(=O)NC1CC1

a:
["> 500 nM", "> 500 nM", "> 500 nM", "> 500 nM", "> 500 nM", "> 500 nM"]

Value sought for every listed compound: IC50.
1. COc1cc(-c2cnc3cc(C4(O)CCC4)ccn23)cc(OC(F)F)c1C(=O)N[C@@H]1C[C@@H]1F
2. CC[C@](C)(O)c1ccn2c(-c3cc(OC)c(C(=O)NC4CC4)c(OC(F)F)c3)cnc2c1 (single isomer, unassigned)
3. COc1cc(-c2cnc3cc(C(C)(C)C#N)ccn23)cc(OC(F)F)c1C(=O)N(C)CC1CC1
4. COc1cc(-c2cnc3cc(C4(O)CCOC4)ccn23)cc(OC(F)F)c1C(=O)NC1CC1 (stereo not shown)
5. COc1cc(-c2cnc3cc(C(C)N4CCO[C@H](CO)C4)ccn23)cc(OC(F)F)c1C(=O)NC1CC1 (stereo partly shown)
6. COc1cc(-c2cnn3cc(C(C)(C)COS(C)(=O)=O)ccc23)cc(OC(F)F)c1C(=O)N[C@@H]1C[C@@H]1F

a:
100 to 500 nM
> 500 nM
> 500 nM
> 500 nM
> 500 nM
> 500 nM

The following compounds each have a reported value; give each one's IC50.
1. COc1cc(-c2cnn3cc(C(C)(C)c4nc(C)no4)ccc23)cc(OC(F)F)c1C(=O)NC1CC1
2. COc1cc(-c2cnn3cc(C4(O)CCC4)ccc23)cc(OC(F)F)c1C(=O)N[C@@H]1C[C@@H]1F
3. COc1cc(-c2cnc3cc(C(C)(C)C#N)ccn23)cc(OC(F)F)c1C(=O)N1CCS(=O)(=O)CC1
4. COc1cc(-c2cnn3cc(C(C)(C)C#N)ccc23)cc(OCCO)c1C(=O)NC1CC1
5. COc1cc(-c2cnc3cc(C(C)(O)C(C)C)ccn23)cc(OC(F)F)c1C(=O)NC1CC1 (stereo not shown)
6. COc1cc(-c2cnc3cc(C(C)(C)C#N)ccn23)cc(OC(F)F)c1C(=O)N1CCC1CO (stereo not shown)
7. COc1cc(-c2cnc3cc(C4(CNC(C)C)CC4)ccn23)cc(OC(F)F)c1C(=O)NC1CC1

a:
> 500 nM
100 to 500 nM
> 500 nM
> 500 nM
> 500 nM
> 500 nM
> 500 nM

Quick request: IC50 for each listed item, please.
1. COc1cc(-c2cnc3cc(C4CCC4)ccn23)cc(OC(F)F)c1C(=O)NC1CC1
2. COCCN1CCCC1c1ccn2c(-c3cc(OC)c(C(=O)NC4CC4)c(OC(F)F)c3)cnc2c1 (stereo not shown)

a:
["10 to 100 nM", "10 to 100 nM"]
